Please respond with reported growth for every item in the list.
- Test system: LOX IMVI melanoma
- Assay explanation: NCI-60 one-dose screen, 48 h (100 = growth as untreated, 0 = no growth, -100 = all killed)
- Test conditions: 10 µM unless noted
About 83,000 compounds went through this panel and 20% of them were active in at least one assay; those are over-represented in the sample as a whole.
Express your answer in %, writing the number without its unit.

Report measured growth; entry is CCN(CC)c1ccc(-c2cc(-c3cc(OC)c(OC)c(OC)c3)nc(N3CCC(O)CC3)c2C#N)cc1
-27.8

Report measured growth; entry is COC(=O)c1c2c(c(C)[n+]([O-])c1C)C(=O)C(NCc1ccccc1)=CC2=O
8.65

Report measured growth; entry is CCOC(=O)/C=C1\S/C(=N\Nc2cc(=O)[nH]c3ccc(Br)cc23)N(c2ccccc2)C1=O
90.6

Report measured growth; entry is COc1ccc(Nc2ncc(C#N)c(NCCCNC(=O)C3CCC3)n2)cc1
32.6

Report measured growth; entry is O=C(/C=C/c1ccccc1)c1cccc2ccccc12
57.8

###

Please respond with reported growth for every item in the list.
- Tested on: MCF7 breast
- Assay explanation: NCI-60 one-dose screen, 48 h (100 = growth as untreated, 0 = no growth, -100 = all killed)
- Test conditions: 10 µM unless noted
The panel holds about 83,000 compounds, 20% with a hit somewhere; the sample as a whole holds those more often.
Express your answer in %, writing the number without its unit.

Report measured growth; entry is Oc1c(CN2CCC(N3CCOCC3)CC2)cc(Cc2cc(CN3CCC(N4CCOCC4)CC3)c(O)c3ncccc23)c2cccnc12
5.06

Report measured growth; entry is Nc1cccc(-c2ccc(COc3ccc(CC4SC(=O)NC4=O)cc3)cc2)c1 (stereo not given)
37.7

Report measured growth; entry is CCCC(=O)NC(c1ccc2c(c1)OCO2)c1cc(Cl)c2cccnc2c1O (stereo not given)
17.5

Report measured growth; entry is CCOC(=O)CNC1=C(Cl)C(=O)N(Cc2ccc(Cl)cc2)C1=O
99.7

Report measured growth; entry is Cc1nn(C)c2ncnc(N/N=C/c3cccc(O)c3O)c12
15

###

- Test system: SK-OV-3 ovarian
- Assay explanation: NCI-60 one-dose screen, 48 h
- Test conditions: 10 µM unless noted
Compounds without any hit were thinned out: in the full panel of roughly 83,000, 20% have a hit. Activity calls are given as the source filed them. Rule for the calls: active = growth percent below 10; inactive = the rest.
Write down the outcome that applies. Available outcomes: active, inactive

Test call for this compound, please: COc1ccc2c(c1)CC[C@@H]1[C@@H]2CC[C@]2(C)c3c(cc(C#N)c4c3sc3ccccc34)C[C@@H]12
inactive

Test call for this compound, please: CCN(CC)C(=O)C1=C(C)NC(=O)NC1c1ccc2c(c1)OCO2 (configuration not stated)
inactive

Test call for this compound, please: CCN(CC)CCOc1ccc(C(=O)/C=C\c2ccc(Cl)cc2Cl)cc1
inactive

Test call for this compound, please: C=C(C)[C@@H]1CC[C@]2(C(=O)Nc3ccccn3)CC[C@]3(C)[C@H](CC[C@@H]4[C@@]5(C)CCCNC(C)(C)[C@@H]5CC[C@]43C)[C@@H]12
inactive

Test call for this compound, please: Cc1ccc2c(c1)sc1nc(-c3c[nH]c4ccccc34)c(Nc3ccccc3)n12
active

Test call for this compound, please: CC(C)(C)OC(=O)CN1CCc2c(sc3ncnc(N4CCN(c5ccc(F)cc5)CC4)c23)C1
inactive

Test call for this compound, please: COc1ccc(NC(=O)c2ccc(Nc3ncnc4c3cnn4-c3cccc(F)c3)cc2)cc1
inactive
